Below: a set of entries, each annotated with reported viability, T/C.
# System: K-562 leukemia growth, % test/control
# ASSAY: Anticancer human tumor K-562 cell line growth inhibition;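 note: spheroids exposed to compounds for 7 days; 100% = DMSO vehicle wells and lower values mean fewer viable cells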
# CONDITION SUMMARY: second compound 0.316 µM; first compound 0.0316 µM; hits give low values; spheroids with HUVEC and MSC

{"columns": ["COMPOUND", "viability, T/C"],
 "data": [
  ["CC(C)c1c(-c2ccccc2)nc2c(C#N)c[nH]n2c1=O + NC1CCC(NC2CC2c2ccccc2)CC1", "100%"],
  ["CC1COCCN1c1cc(C2(S(C)(=N)=O)CC2)nc(-c2ccnc3[nH]ccc23)n1 (centres undefined) + NC1CC1c1ccc(-c2cccc(O)c2)cc1", "100%"],
  ["O=C(c1cc(Cc2n[nH]c(=O)c3ccccc23)ccc1F)N1CCN(C(=O)C2CC2)CC1 + NC1CC1c1ccc(-c2cccc(O)c2)cc1", "107%"],
  ["CC(C)c1c(-c2ccccc2)nc2c(C#N)c[nH]n2c1=O + NC1CC1c1ccc(-c2cccc(O)c2)cc1", "102%"]
]}

----------
# Test system: K-562 leukemia growth, % test/control
# ASSAY: Anticancer human tumor K-562 cell line growth inhibition;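 note: spheroids exposed to compounds for 7 days; 100% = DMSO vehicle wells and lower values mean fewer viable cells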
# CONDITION SUMMARY: second compound 0.1 µM; first compound 0.00316 µM; hits give low values; spheroids with HUVEC and MSC
The following compounds are shown together with reported viability, T/C values.

{"columns": ["COMPOUND", "viability, T/C [%]"],
 "data": [
  ["Cn1ncnc1C1c2n[nH]c(=O)c3cc(F)cc(c23)NC1c1ccc(F)cc1 (centres undefined) + NC1CCC(NC2CC2c2ccccc2)CC1", 101],
  ["CC[C@@]1(O)C(=O)OCc2c1cc1n(c2=O)Cc2cc3c(CN(C)C)c(O)ccc3nc2-1 + NC1CCC(NC2CC2c2ccccc2)CC1", 34.7],
  ["CC(C)CC(NC(=O)CNC(=O)c1cc(Cl)ccc1Cl)B1OC(=O)CC(CC(=O)O)(C(=O)O)O1 (centres undefined) + NC1CCC(NC2CC2c2ccccc2)CC1", 100],
  ["CC(C)CC(NC(=O)C(Cc1ccccc1)NC(=O)c1cnccn1)B(O)O (centres undefined) + NC1CCC(NC2CC2c2ccccc2)CC1", 10.2],
  ["CC1COCCN1c1cc(-c2ccnn2C)c2ccnc(-c3ccn[nH]3)c2n1 (centres undefined) + NC1CCC(NC2CC2c2ccccc2)CC1", 90.4],
  ["Nc1ncn(C2CC(O)C(CO)O2)c(=O)n1 (centres undefined) + NC1CCC(NC2CC2c2ccccc2)CC1", 102],
  ["CC(C)CC(NC(=O)CNC(=O)c1cc(Cl)ccc1Cl)B1OC(=O)CC(CC(=O)O)(C(=O)O)O1 (centres undefined) + NC1CC1c1ccc(-c2cccc(O)c2)cc1", 107],
  ["COc1cc(Nc2ncc3c(n2)-c2ccc(Cl)cc2C(c2c(F)cccc2OC)=NC3)ccc1C(=O)O + NC1CCC(NC2CC2c2ccccc2)CC1", 51],
  ["Nc1ncn(C2CC(O)C(CO)O2)c(=O)n1 (centres undefined) + NC1CC1c1ccc(-c2cccc(O)c2)cc1", 106]
]}

----------
# Test system: K-562 leukemia growth, % test/control
# ASSAY: Anticancer human tumor K-562 cell line growth inhibition;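 note: spheroids exposed to compounds for 7 days; 100% = DMSO vehicle wells and lower values mean fewer viable cells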
# CONDITION SUMMARY: second compound 3.16 µM; first compound 0.0316 µM; hits give low values; spheroids with HUVEC and MSC
Listing of recorded viability, T/C by entry.

{"columns": ["MOLECULE", "viability, T/C"],
 "data": [
  ["CC(C)CC(NC(=O)C(Cc1ccccc1)NC(=O)c1cnccn1)B(O)O (stereo not drawn) + NC1CC1c1ccc(-c2cccc(O)c2)cc1", "0.43%"],
  ["COc1ccc([C@@H](O)c2cc(-c3ncnc4cc(N5CCOCC5)ccc34)c(F)cc2Cl)nn1 + NC1CC1c1ccc(-c2cccc(O)c2)cc1", "103%"],
  ["CC(C)CC(NC(=O)CNC(=O)c1cc(Cl)ccc1Cl)B1OC(=O)CC(CC(=O)O)(C(=O)O)O1 (stereo not drawn) + NC1CC1c1ccc(-c2cccc(O)c2)cc1", "9.01%"],
  ["O=C(C=Cn1cnc(-c2cc(C(F)(F)F)cc(C(F)(F)F)c2)n1)NNc1cnccn1 + NC1CC1c1ccc(-c2cccc(O)c2)cc1", "73.4%"],
  ["Cn1ncnc1C1c2n[nH]c(=O)c3cc(F)cc(c23)NC1c1ccc(F)cc1 (stereo not drawn) + NC1CC1c1ccc(-c2cccc(O)c2)cc1", "98.5%"],
  ["Nc1ncn(C2CC(O)C(CO)O2)c(=O)n1 (stereo not drawn) + NC1CC1c1ccc(-c2cccc(O)c2)cc1", "95.9%"],
  ["CC(C)c1c(-c2ccccc2)nc2c(C#N)c[nH]n2c1=O + NC1CC1c1ccc(-c2cccc(O)c2)cc1", "102%"],
  ["COc1cc(Nc2ncc3c(n2)-c2ccc(Cl)cc2C(c2c(F)cccc2OC)=NC3)ccc1C(=O)O + NC1CCC(NC2CC2c2ccccc2)CC1", "23.7%"],
  ["O=C(c1cc(Cc2n[nH]c(=O)c3ccccc23)ccc1F)N1CCN(C(=O)C2CC2)CC1 + NC1CCC(NC2CC2c2ccccc2)CC1", "102%"],
  ["CC(C)CC(NC(=O)CNC(=O)c1cc(Cl)ccc1Cl)B1OC(=O)CC(CC(=O)O)(C(=O)O)O1 (stereo not drawn) + NC1CCC(NC2CC2c2ccccc2)CC1", "16.9%"],
  ["COc1ccc([C@@H](O)c2cc(-c3ncnc4cc(N5CCOCC5)ccc34)c(F)cc2Cl)nn1 + NC1CCC(NC2CC2c2ccccc2)CC1", "101%"],
  ["Cn1ncnc1C1c2n[nH]c(=O)c3cc(F)cc(c23)NC1c1ccc(F)cc1 (stereo not drawn) + NC1CCC(NC2CC2c2ccccc2)CC1", "104%"],
  ["CC(C)CC(NC(=O)C(Cc1ccccc1)NC(=O)c1cnccn1)B(O)O (stereo not drawn) + NC1CCC(NC2CC2c2ccccc2)CC1", "2.66%"]
]}
